Biological target: 3-hydroxy-3-methylglutaryl-coenzyme A reductase (Homo sapiens) (UniProt P04035)
Sequence (whole entry): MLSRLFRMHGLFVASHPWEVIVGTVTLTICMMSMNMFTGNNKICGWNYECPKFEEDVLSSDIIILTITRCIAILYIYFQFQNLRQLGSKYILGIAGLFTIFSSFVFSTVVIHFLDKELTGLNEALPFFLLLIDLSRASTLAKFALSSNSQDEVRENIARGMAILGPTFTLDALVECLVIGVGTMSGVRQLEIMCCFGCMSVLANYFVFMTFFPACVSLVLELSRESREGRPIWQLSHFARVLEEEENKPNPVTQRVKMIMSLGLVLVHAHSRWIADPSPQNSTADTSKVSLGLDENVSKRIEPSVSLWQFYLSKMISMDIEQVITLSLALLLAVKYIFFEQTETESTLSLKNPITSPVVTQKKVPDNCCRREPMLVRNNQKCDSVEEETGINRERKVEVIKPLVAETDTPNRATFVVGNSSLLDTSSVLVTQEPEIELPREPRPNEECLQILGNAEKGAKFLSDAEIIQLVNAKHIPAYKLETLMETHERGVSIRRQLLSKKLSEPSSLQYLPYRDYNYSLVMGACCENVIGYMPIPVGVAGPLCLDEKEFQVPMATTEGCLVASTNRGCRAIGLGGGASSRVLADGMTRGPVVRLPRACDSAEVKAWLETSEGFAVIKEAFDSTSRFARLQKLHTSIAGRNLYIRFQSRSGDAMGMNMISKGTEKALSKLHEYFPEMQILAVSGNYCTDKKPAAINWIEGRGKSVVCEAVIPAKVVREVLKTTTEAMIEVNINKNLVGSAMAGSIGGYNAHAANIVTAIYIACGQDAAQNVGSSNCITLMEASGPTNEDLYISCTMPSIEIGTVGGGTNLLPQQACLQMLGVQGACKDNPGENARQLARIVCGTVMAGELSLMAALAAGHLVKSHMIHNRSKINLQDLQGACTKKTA
Assay: In vitro suppression of HMG-CoA reductase (HMGR) in Hep G2 cells
Assay type: cell-based
Design: concentration or dose not given beside the values
Conditions: HepG2, concentration not given here
Is inhibition at least 40%? Then 1.0. If not, 0.0.

Solved entries (count: 5):
{"molecule": "CC(C)=CCC/C(C)=C/CC/C(C)=C/CCC1(C)CCc2cc(O)c(F)cc2O1 (stereo not given)", "label class": 0.0}
{"molecule": "CC(C)=CCC/C(C)=C/CCC#CCCC1(C)CCc2cc(O)c(C)c(C)c2O1 (stereo not given)", "label class": 1.0}
{"molecule": "CC(C)=CCC/C(C)=C/CC/C(C)=C/CCC1(C)CCc2cc(O)c(C)c(C)c2O1 (stereo not given)", "label class": 1.0}
{"molecule": "CC(C)=CCC/C(C)=C/CC/C(C)=C/CCC1(C)CCc2cc(O)c3ccccc3c2O1 (stereo not given)", "label class": 1.0}
{"molecule": "CC(C)=CCC/C(C)=C/CCC1(C)CCc2cc(O)ccc2O1 (stereo not given)", "label class": 1.0}

### Prompt Kindly determine if inhibition recorded for CC(C)=CCC/C(C)=C/CC/C(C)=C/CCC1(C)CCc2c(C)c(O)cc(C)c2O1 (stereo not given) is above or exactly 40%.
### Response 0.0

### Prompt Kindly determine if inhibition recorded for CC(C)=CCC/C(C)=C/CC/C(C)=C/CCC1(C)CC(=O)c2cc(O)c(C)c(C)c2O1 (stereo not given) is above or exactly 40%.
### Response 0.0

### Prompt Kindly determine if inhibition recorded for CC(C)=CCC/C(C)=C/CC/C(C)=C/CCC1(C)CCc2ccccc2O1 (stereo not given) is above or exactly 40%.
### Response 0.0

---

This section presents compounds with their documented LDL cholesterol values.
Species: Gallus gallus
Test: Hypocholesterolemic activity in 6-week old male mormocholesterolemic chickens using experiment 3
Format: functional
Please respond with the number in mg 100ml-1 and leave the unit unwritten.

Here are 5 compounds together with their reported answers.
{"compound": "CC(C)=CCC/C(C)=C/CC/C(C)=C/CCC1(C)CCc2cc(O)cc(C#N)c2O1 (stereo unspecified)", "unit tag": "mg 100ml-1", "numeric readout": 54}
{"compound": "CC(C)=CCC/C(C)=C/CC/C(C)=C/CCC1(C)CCc2cc(O)cc(Br)c2O1 (stereo unspecified)", "unit tag": "mg 100ml-1", "numeric readout": 45}
{"compound": "CC(C)=CCC/C(C)=C/CC/C(C)=C/CCC1(C)CCc2cc(O)c(C)c(C)c2O1 (stereo unspecified)", "unit tag": "mg 100ml-1", "numeric readout": 51}
{"compound": "CC(C)=CCC/C(C)=C/CC/C(C)=C/CCC1CCc2cc(O)ccc2C1 (stereo unspecified)", "unit tag": "mg 100ml-1", "numeric readout": 57}
{"compound": "CC(C)=CCC/C(C)=C/CC/C(C)=C/CCC1(C)CCc2cc(O)c3ccccc3c2O1 (stereo unspecified)", "unit tag": "mg 100ml-1", "numeric readout": 61}

Turning to the following compound.
### Prompt Requested read-out: LDL cholesterol. Entry: CC(C)=CCC/C(C)=C/CC/C(C)=C/CCC1CCc2cc(O)c(C)c(C)c2O1 (stereo unspecified)
### Response 85

---

Test system: HepG2
Assay: In vitro inhibition of cholesterol biosynthesis in Hep G2 cells
Type: functional, Homo sapiens
Parameters: concentration or dose not given beside the values
This section presents compounds with their documented Inhibition values.
Please respond with the number in % and leave the unit unwritten.

Here are 5 compounds together with their reported answers.
{"compound": "CC(C)=CCC/C(C)=C/CC/C(C)=C/CCC1(C)CCc2cc(O)ccc2O1 (centres undefined)", "numeric readout": 62}
{"compound": "CC(C)=CCC/C(C)=C\\CCC1(C)CCc2cc(O)ccc2O1 (centres undefined)", "numeric readout": 55}
{"compound": "CC(C)=CCCC1(C)CCc2cc(O)ccc2O1 (centres undefined)", "numeric readout": 35}
{"compound": "CC(C)=CCC/C(C)=C/CC/C(C)=C/CC/C(C)=C/CCC1(C)CCc2cc(O)c(C)c(C)c2O1 (centres undefined)", "numeric readout": 0}
{"compound": "CCCCCCCCCCCCCC1(C)CCc2cc(O)c(C)c(C)c2O1 (centres undefined)", "numeric readout": 16}

### Prompt Requested read-out: Inhibition. Entry: CC(C)=CCC/C(C)=C/CC/C(C)=C/CCC1(C)CCc2cccc(O)c2O1 (centres undefined)
### Response 46

### Prompt Requested read-out: Inhibition. Entry: CC(C)=CCC/C(C)=C/CC/C(C)=C/CCC1Oc2c(cc(O)c(C)c2C)C(=O)/C1=N\O (centres undefined)
### Response 84

### Prompt Requested read-out: Inhibition. Entry: CC(C)=CCC/C(C)=C/CC/C(C)=C/CCC1(C)CC(=O)c2cc(O)c(C)c(C)c2O1 (centres undefined)
### Response 93

### Prompt Requested read-out: Inhibition. Entry: CC(C)=CCC/C(C)=C/CCC1(C)CCc2cc(O)ccc2O1 (centres undefined)
### Response 48

### Prompt Requested read-out: Inhibition. Entry: CC(C)=CCC/C(C)=C/CC/C(C)=C/CCC1(C)CCc2cc(O)ccc2C1 (centres undefined)
### Response 58

### Prompt Requested read-out: Inhibition. Entry: CC(C)=CCC/C(C)=C/CC/C(C)=C/CCC1(C)CCc2cc(O)cc(C#N)c2O1 (centres undefined)
### Response 63

### Prompt Requested read-out: Inhibition. Entry: CCCCCCCC/C=C/CCCCCCCC1(C)CCc2cc(O)c(C)c(C)c2O1 (centres undefined)
### Response 10

### Prompt Requested read-out: Inhibition. Entry: CC(C)=CCC/C(C)=C/CC/C(C)=C/CCC1(C)CCc2cc(O)c(C(C)(C)C)cc2O1 (centres undefined)
### Response 38

### Prompt Requested read-out: Inhibition. Entry: CC(C)=CCC/C(C)=C/CC/C(C)=C/CCC1CCc2cc(O)ccc2C1 (centres undefined)
### Response 40

### Prompt Requested read-out: Inhibition. Entry: "CC(C)=CCC/C(C)=C/CC/C(C)=C/CCc1oc2c(C)c(C)c(O)cc2c(=O)c1O"
### Response 61

---

This section presents compounds with their documented Potential values.
Test: Compound oxidation potential using cyclic voltametry
Assay type: ADME

Here are 6 compounds together with their reported answers.
{"compound": "CC(C)=CCC/C(C)=C/CC/C(C)=C/CCc1oc2c(C)c(C)c(O)cc2c(=O)c1O", "Potential": 1.2}
{"compound": "CC(C)=CCC/C(C)=C/CC/C(C)=C/CCC1(C)CCc2ccc(O)c(O)c2O1 (configuration not stated)", "Potential": 1.26}
{"compound": "CC(C)=CCC/C(C)=C/CC/C(C)=C/CCC1(C)CCc2ccc(O)cc2O1 (configuration not stated)", "Potential": 1.44}
{"compound": "CC(C)=CCC/C(C)=C/CC/C(C)=C/CCC1(C)CC(=O)c2cc(O)c(C)c(C)c2O1 (configuration not stated)", "Potential": 1.2}
{"compound": "CC(C)=CCC/C(C)=C/CC/C(C)=C/CCC1(C)CCc2cc(O)c(C)c(C)c2O1 (configuration not stated)", "Potential": 0.94}
{"compound": "CC(C)=CCC/C(C)=C/CC/C(C)=C/CCC1(C)CC(O)c2cc(O)c(C)c(C)c2O1 (configuration not stated)", "Potential": 0.96}

### Prompt Requested read-out: Potential. Entry: CC(C)=CCC/C(C)=C/CC/C(C)=C/CCC1(C)CCc2cccc(O)c2O1 (configuration not stated)
### Response 1.24

### Prompt Requested read-out: Potential. Entry: CC(C)=CCC/C(C)=C/CC/C(C)=C/CCC1(C)C=Cc2cc(O)c(C)c(C)c2O1 (configuration not stated)
### Response 0.92

### Prompt Requested read-out: Potential. Entry: CC(C)=CCC/C(C)=C/CC/C(C)=C/CCC1(C)CCc2cc(O)c(F)cc2O1 (configuration not stated)
### Response 1.21
